Every entry's value here was drawn from paper PMC7488503.

assay: Pharmacokinetic study in beagles; assay type: in vivo; settings: both, beagle, dog, plasma, po, 100 mg/kg
observedProperty: Cmax
Kindly format the answer as number then unit.

Which value of Cmax has been reported for COc1cc2nccc(Oc3ccc(NC(=S)NC4CC4)c(Cl)c3F)c2cc1C(N)=O [WXFL-152] in the records? 47.8 µM

* * *

experiment: Pharmacokinetic study in rats; assay type: in vivo; settings: both, Sprague-Dawley, rat, plasma, po, 50 mg/kg/day
observedProperty: Cmax at 7 days (µM)
State just the number; it will be interpreted in µM.

Which value of Cmax at 7 days has been reported for COc1cc2nccc(Oc3ccc(NC(=S)NC4CC4)c(Cl)c3F)c2cc1C(N)=O in the records? 46.5

* * *

assay: Pharmacokinetic study in rats; type: in vivo; settings: both, Sprague-Dawley, rat, plasma, iv, 3 mg/kg
observedProperty: AUC(0-inf) (µM·h)
State just the number; it will be interpreted in µM·h.

Which value of AUC(0-inf) has been reported for COc1cc2nccc(Oc3ccc(NC(=S)NC4CC4)c(Cl)c3F)c2cc1C(N)=O in the records? 35.2

* * *

pIC50: −log10 of the molar value.
observedProperty: pIC50

Enter reported pIC50 observed with MAPKAPK2 (Homo sapiens) for COc1cc2nccc(Oc3ccc(NC(=S)NC4CC4)c(Cl)c3F)c2cc1C(N)=O < 5.00

* * *

Biological target: DYRK3 (Homo sapiens, UniProt O43781)
Sequence (O43781 1-588): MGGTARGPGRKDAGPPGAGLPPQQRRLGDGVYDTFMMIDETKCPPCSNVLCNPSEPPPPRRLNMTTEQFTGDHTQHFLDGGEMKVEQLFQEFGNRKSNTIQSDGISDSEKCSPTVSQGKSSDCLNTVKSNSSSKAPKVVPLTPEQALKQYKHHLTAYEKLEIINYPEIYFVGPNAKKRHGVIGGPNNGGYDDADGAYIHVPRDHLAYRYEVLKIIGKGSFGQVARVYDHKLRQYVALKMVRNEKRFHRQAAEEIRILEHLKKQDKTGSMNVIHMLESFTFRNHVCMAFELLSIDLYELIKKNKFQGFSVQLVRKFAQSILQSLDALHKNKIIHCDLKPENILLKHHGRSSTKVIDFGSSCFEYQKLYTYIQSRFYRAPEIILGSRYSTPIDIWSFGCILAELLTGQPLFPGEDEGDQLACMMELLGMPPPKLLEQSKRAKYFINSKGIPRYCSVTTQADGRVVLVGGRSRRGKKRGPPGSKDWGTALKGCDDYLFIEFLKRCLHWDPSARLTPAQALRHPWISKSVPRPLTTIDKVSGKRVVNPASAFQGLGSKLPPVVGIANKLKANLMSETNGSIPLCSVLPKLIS
pIC50: −log10 of the molar value.
observedProperty: pIC50

Enter reported pIC50 observed with DYRK3 (Homo sapiens, UniProt O43781) for COc1cc2nccc(Oc3ccc(NC(=S)NC4CC4)c(Cl)c3F)c2cc1C(N)=O [WXFL-152] < 5.00

* * *

assay: Pharmacokinetic study in beagles; assay type: in vivo; conditions: both, beagle, dog, plasma, iv, 2 mg/kg
observedProperty: clearance (mL/min/kg)
State just the number; it will be interpreted in mL/min/kg.

Which value of clearance has been reported for COc1cc2nccc(Oc3ccc(NC(=S)NC4CC4)c(Cl)c3F)c2cc1C(N)=O in the records? 14.5

* * *

experiment: Pharmacokinetic study in rats; type: in vivo; conditions: both, Sprague-Dawley, rat, plasma, iv, 3 mg/kg
observedProperty: AUC(0-t) (µM·h)
State just the number; it will be interpreted in µM·h.

Which value of AUC(0-t) has been reported for COc1cc2nccc(Oc3ccc(NC(=S)NC4CC4)c(Cl)c3F)c2cc1C(N)=O in the records? 35

* * *

assay: Pharmacokinetic study in rats; format: in vivo; settings: both, Sprague-Dawley, rat, plasma, po, 50 mg/kg
observedProperty: Tmax (min)
State just the number; it will be interpreted in min.

Which value of Tmax has been reported for COc1cc2nccc(Oc3ccc(NC(=S)NC4CC4)c(Cl)c3F)c2cc1C(N)=O in the records? 32.4

* * *

assay: Pharmacokinetic study in beagles; assay type: in vivo; details: both, beagle, dog, plasma, po, 30 mg/kg
observedProperty: AUC(0-inf) (µM·h)
State just the number; it will be interpreted in µM·h.

Which value of AUC(0-inf) has been reported for COc1cc2nccc(Oc3ccc(NC(=S)NC4CC4)c(Cl)c3F)c2cc1C(N)=O in the records? 51.8

* * *

assay: Pharmacokinetic study in rats; format: in vivo; settings: both, Sprague-Dawley, rat, plasma, po, 150 mg/kg
observedProperty: Cmax
Kindly format the answer as number then unit.

Which value of Cmax has been reported for COc1cc2nccc(Oc3ccc(NC(=S)NC4CC4)c(Cl)c3F)c2cc1C(N)=O [WXFL-152] in the records? 48.7 µM

* * *

experiment: Pharmacokinetic study in beagles; type: in vivo; conditions: both, beagle, dog, plasma, po, 100 mg/kg
observedProperty: AUC(0-inf) (µM·h)
State just the number; it will be interpreted in µM·h.

Which value of AUC(0-inf) has been reported for COc1cc2nccc(Oc3ccc(NC(=S)NC4CC4)c(Cl)c3F)c2cc1C(N)=O in the records? 230

* * *

experiment: Pharmacokinetic study in rats; assay type: in vivo; details: both, Sprague-Dawley, rat, plasma, po, 150 mg/kg
observedProperty: AUC(0-t) (µM·h)
State just the number; it will be interpreted in µM·h.

Which value of AUC(0-t) has been reported for COc1cc2nccc(Oc3ccc(NC(=S)NC4CC4)c(Cl)c3F)c2cc1C(N)=O in the records? 232

* * *

observedProperty: IC50

Enter reported IC50 observed with UniProtKB Q9P289 for COc1cc2nccc(Oc3ccc(NC(=S)NC4CC4)c(Cl)c3F)c2cc1C(N)=O > 10 µM

* * *

experiment: Pharmacokinetic study in rats; format: in vivo; details: both, Sprague-Dawley, rat, plasma, po, 50 mg/kg/day
observedProperty: AUC(0-inf) (µM·h)
State just the number; it will be interpreted in µM·h.

Which value of AUC(0-inf) has been reported for COc1cc2nccc(Oc3ccc(NC(=S)NC4CC4)c(Cl)c3F)c2cc1C(N)=O [WXFL-152] in the records? 151

* * *

molecular target: GSK3β (Homo sapiens, UniProt P49841)
Sequence (P49841 whole entry): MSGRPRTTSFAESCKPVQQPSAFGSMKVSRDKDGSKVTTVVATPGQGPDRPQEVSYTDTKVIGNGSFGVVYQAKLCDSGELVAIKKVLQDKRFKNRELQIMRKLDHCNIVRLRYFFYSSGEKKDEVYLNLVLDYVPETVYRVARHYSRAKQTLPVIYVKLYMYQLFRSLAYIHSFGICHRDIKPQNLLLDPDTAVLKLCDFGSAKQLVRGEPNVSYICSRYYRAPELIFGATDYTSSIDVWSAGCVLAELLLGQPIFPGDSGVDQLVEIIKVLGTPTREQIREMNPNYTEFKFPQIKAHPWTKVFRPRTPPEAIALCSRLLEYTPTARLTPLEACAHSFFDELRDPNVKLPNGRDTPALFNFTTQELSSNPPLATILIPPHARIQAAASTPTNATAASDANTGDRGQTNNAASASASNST
observedProperty: IC50

Which value of IC50 has been reported for COc1cc2nccc(Oc3ccc(NC(=S)NC4CC4)c(Cl)c3F)c2cc1C(N)=O in the records? > 10 µM

* * *

assay: Pharmacokinetic study in rats; assay type: in vivo; conditions: both, Sprague-Dawley, rat, plasma, po, 15 mg/kg
observedProperty: bioavailability (%)
State just the number; it will be interpreted in %.

Which value of bioavailability has been reported for COc1cc2nccc(Oc3ccc(NC(=S)NC4CC4)c(Cl)c3F)c2cc1C(N)=O [WXFL-152] in the records? 42

* * *

observedProperty: IC50 (nM)
State just the number; it will be interpreted in nM.

Enter reported IC50 observed with FGFR2 (Homo sapiens, UniProt P21802) for COc1cc2nccc(Oc3ccc(NC(=S)NC4CC4)c(Cl)c3F)c2cc1C(N)=O 15.5

* * *

assay: Pharmacokinetic study in beagles; assay type: in vivo; settings: both, beagle, dog, plasma, po, 30 mg/kg/day
observedProperty: AUC(0-t) (µM·h)
State just the number; it will be interpreted in µM·h.

Which value of AUC(0-t) has been reported for COc1cc2nccc(Oc3ccc(NC(=S)NC4CC4)c(Cl)c3F)c2cc1C(N)=O in the records? 23.7

* * *

assay: Pharmacokinetic study in beagles; format: in vivo; settings: both, beagle, dog, plasma, po, 10 mg/kg
observedProperty: bioavailability (%)
State just the number; it will be interpreted in %.

Which value of bioavailability has been reported for COc1cc2nccc(Oc3ccc(NC(=S)NC4CC4)c(Cl)c3F)c2cc1C(N)=O [WXFL-152] in the records? 76.9

* * *

assay: Pharmacokinetic study in beagles; format: in vivo; conditions: both, beagle, dog, plasma, po, 30 mg/kg
observedProperty: Cmax (µM)
State just the number; it will be interpreted in µM.

Which value of Cmax has been reported for COc1cc2nccc(Oc3ccc(NC(=S)NC4CC4)c(Cl)c3F)c2cc1C(N)=O in the records? 16.2

* * *

observedProperty: pIC50
Kindly note that pIC50 refers to -log10 of the concentration in mol/L and answer with the value alone.

Enter reported pIC50 observed with VEGFR3 (Homo sapiens, UniProt P35916) for COc1cc2nccc(Oc3ccc(NC(=S)NC4CC4)c(Cl)c3F)c2cc1C(N)=O [WXFL-152] 8.07

* * *

experiment: Pharmacokinetic study in rats; assay type: in vivo; details: both, Sprague-Dawley, rat, plasma, po, 15 mg/kg
observedProperty: half-life (h)
State just the number; it will be interpreted in h.

Which value of half-life has been reported for COc1cc2nccc(Oc3ccc(NC(=S)NC4CC4)c(Cl)c3F)c2cc1C(N)=O in the records? 2.21

* * *

assay: Pharmacokinetic study in beagles; type: in vivo; conditions: both, beagle, dog, plasma, po, 100 mg/kg
observedProperty: AUC(0-t) (µM·h)
State just the number; it will be interpreted in µM·h.

Which value of AUC(0-t) has been reported for COc1cc2nccc(Oc3ccc(NC(=S)NC4CC4)c(Cl)c3F)c2cc1C(N)=O in the records? 199
